- assay protocol: Selectivity index, ratio of CC50 for human Hep G2.2.15 cells to IC50 for HBV surface antigen secretion
- Assay type: functional
quantity measured: Ratio CC50/IC50

Please give measured Ratio CC50/IC50 of the following entry: "CC(=O)Nc1c(-c2ccccc2)c2cc(Cl)ccc2[nH]c1=O"
1.1

Please give measured Ratio CC50/IC50 of the following entry: CC(=O)OC1N=C(c2ccccc2)c2cc(Cl)ccc2NC1=O (centres undefined)
2.3

Please give measured Ratio CC50/IC50 of the following entry: "O=c1[nH]c2ccc(Cl)cc2c(-c2ccccc2)c1CCO"
>16

Please give measured Ratio CC50/IC50 of the following entry: "CC(=O)Nc1c(-c2ccccc2Cl)c2cc(Cl)ccc2[nH]c1=O"
1.6

Please give measured Ratio CC50/IC50 of the following entry: "O=c1[nH]c2ccc(Cl)cc2c(-c2ccccc2Cl)c1CCO"
23

Please give measured Ratio CC50/IC50 of the following entry: CC(=O)OC1N=C(c2ccccc2Cl)c2cc(Cl)ccc2NC1=O (centres undefined)
<1

Please give measured Ratio CC50/IC50 of the following entry: "O=c1[nH]c2ccc(Cl)cc2c(-c2ccccc2F)c1CCO"
>16

Please give measured Ratio CC50/IC50 of the following entry: "Nc1c(-c2ccccc2F)c2cc(Cl)ccc2[nH]c1=O"
14

Please give measured Ratio CC50/IC50 of the following entry: O=C1CN2OC2(c2ccccc2F)c2cc(Cl)ccc2N1 (centres undefined)
1.8
